The reported measurements were obtained from the pKa sets of Baltruschat and Czodrowski (2020).

So I've got a bunch of compounds here, and I need their pKa values.
Conditions: basic group
Answers are plain numbers.

>>> print(df.to_string())
                          compound  outcome_measure  readout_value
0  CCCCN(CCCC)c1nnc(-c2ccccc2)cc1C              pKa           4.88

Field: pKa. Fill in for each record below.
1. CCC(O)CN(CC)CCO (stereo unspecified)
2. CN(C)CCO
3. c1coc(CNCC[NH2+]Cc2ccco2)c1

Output line:
9.1
9.36
5.74

Field: pKa. Fill in for each record below.
1. Clc1nc2cc3c(cc2[nH]1)CCCC3
2. Cc1cc([O-])nc2c1CCO2
3. O=C([O-])c1ccc2ccccc2n1
4. Cn1cnc2ncncc21
5. N[C@@H](Cc1ccccc1)C(=O)[O-]
6. Cc1ccccc1C(=NCCCN(C)C)c1ccccc1C
7. CCCN1CCCCC1
8. COc1cc(CN)c(C)cc1N

Output line:
1: 2.68; 2: 8.44; 3: 4.97; 4: 2.29; 5: 9.14; 6: 8.7; 7: 10.4; 8: 9.54

Field: pKa. Fill in for each record below.
1. Brc1cnc2c(ccc3cc(Br)cnc32)c1
2. Cc1cnc2ccc(C)c([N+](=O)[O-])c2c1NCCC[NH+](C)C
3. CNc1c2ccccc2nc2cccc([N+](=O)[O-])c12
4. Nc1ccnc2ccc3ncccc3c12
5. Oc1cccc2[nH]ncc12
6. CCCCc1ccccc1N
7. CC(C)(N)Cc1ccccc1

Output line:
1: 3.9; 2: 6.07; 3: 7.2; 4: 7.3; 5: 8.65; 6: 4.26; 7: 10.1

Field: pKa. Fill in for each record below.
1. c1ccc2cc(NCCNc3ccc4ccccc4c3)ccc2c1
2. CCO[Si](C)(CN)OCC
3. COC(=O)C[C@@H]1[C@@H](C(=O)[O-])NC[C@H]1C(C)O (stereo partly specified)

Output line:
[3.7, 9.19, 9.41]
